Target: T1, SYNJ2BP, P57105
T1 sequence (P57105 8-110, limits assumed, looked up): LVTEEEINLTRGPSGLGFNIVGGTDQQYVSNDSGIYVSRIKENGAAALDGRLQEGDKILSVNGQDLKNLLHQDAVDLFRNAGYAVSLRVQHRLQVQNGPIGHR
Experiment: holdup assay
Set-up: key: below the threshold = too weak to quantify, mostly under pKd 3.1 to 4
Details: plain residues with an end cap or a label only (N-terminal biotin on a linker: ado-ado)
measured_metric: pKd

[[record]]
binder = "LRSPRTPSEV [OR10G3, Q8NGC4]"
experimental_value = 4.61

[[record]]
binder = "PKRSFIESNV [TANC1, Q9C0D5]"
experimental_value = 5.28

[[record]]
binder = "RKPKPSSSCC [RAB9A, P51151]"
experimental_value = "below the threshold"

[[record]]
binder = "PRAEAEDSFL [PDGFRB, P09619]"
experimental_value = 3.93

[[record]]
binder = "EALLQMESVA [CAVIN3, Q969G5]"
experimental_value = 3.52

[[record]]
binder = "NHSSSPETTA [TRMT13, Q9NUP7]"
experimental_value = "below the threshold"

[[record]]
binder = "SSALYGESDL [ACTN2, P35609]"
experimental_value = 3.87

[[record]]
binder = "EVEEFPETSV [TRPV3, Q8NET8]"
experimental_value = 5.2

[[record]]
binder = "LKVPPEERLI [CRB2, Q5IJ48]"
experimental_value = "below the threshold"

[[record]]
binder = "QSPANIYYKV [EFNB1, P52799]"
experimental_value = "below the threshold"

[[record]]
binder = "SARSRLSSNL [HCN2, Q9UL51]"
experimental_value = 3.76

[[record]]
binder = "LPAHHNATRL [SLC34A1, Q06495;Q06495-1]"
experimental_value = "below the threshold"

[[record]]
binder = "HLRARKSEWV [GJD4, Q96KN9]"
experimental_value = 4.2

[[record]]
binder = "QMNQTLPVQV [EPHB3, P54753]"
experimental_value = "below the threshold"

[[record]]
binder = "RHGSCVETSL [TMEM151B, Q8IW70]"
experimental_value = 5.1

[[record]]
binder = "KKAPTNEFYA [SDC4, P31431]"
experimental_value = "below the threshold"

